All figures here come from paper PMC12582985.

- System: MCF‐10A cells
- Protocol Text: CCK‐8 cell viability assay, non‐tumor MCF‐10A
- Assay type: cell-based, human
- Measurement Setup: CCK‐8, 48 h, triplicate; peptides 5–45 μg·mL^−1; 5‐FU positive control 0.1–5 mM; vs negative control
Quantity Name: viability of non‐tumor MCF‐10A cells

primary_sequence="SSGCPPLPPRRGAPAGWLSH [RCP‐2, synthesized 20‐mer renal cell peptide from Brain‐derived neurotrophic factor, trypsin digested]" experimental_target="MCF‐10A cells" experimental_value="decreased the viability"
primary_sequence="GIYAPDSPRAF [RCP‐8, synthesized 11‐mer renal cell peptide from Vanin 1, protamex‐digested]" experimental_target="MCF‐10A cells" experimental_value="decreased the viability"
primary_sequence="GPAGPQGPR [RCP‐3, synthesized 9‐mer renal cell peptide from Collagen alpha‐1 (I) chain, trypsin digested]" experimental_target="MCF‐10A cells" experimental_value="decreased the viability"
